Origin of the recorded values: patent EP4682166A1

- assay target: T1, human NMI (N-myc Interacting protein), recombinant protein (human, UniProt Q13287 1-307, limits assumed)
- T1 construct: Gene ID: 9111; also called hNMI; antigen
- T1 sequence (looked up): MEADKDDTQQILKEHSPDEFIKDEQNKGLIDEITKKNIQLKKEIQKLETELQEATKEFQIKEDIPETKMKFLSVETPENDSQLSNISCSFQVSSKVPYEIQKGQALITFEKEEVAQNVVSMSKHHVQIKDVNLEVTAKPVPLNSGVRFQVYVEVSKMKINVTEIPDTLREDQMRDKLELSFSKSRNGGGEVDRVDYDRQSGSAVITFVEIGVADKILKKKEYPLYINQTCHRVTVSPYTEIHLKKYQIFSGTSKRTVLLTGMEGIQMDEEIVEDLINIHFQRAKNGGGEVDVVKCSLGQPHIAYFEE
- test: sandwich ELISA; detection 94C4-1-biotin 0.5µg/mL; hNMI 3,125.000 pg/mL
In this section, each of the binders is paired with its reported OD450.
Numbers only here, please. The scale is OD450.

Study these solved cases before continuing.
monoclonal antibody 240B10-1 (antibody, V domains shown, Rabbit monoclonal antibody) VH: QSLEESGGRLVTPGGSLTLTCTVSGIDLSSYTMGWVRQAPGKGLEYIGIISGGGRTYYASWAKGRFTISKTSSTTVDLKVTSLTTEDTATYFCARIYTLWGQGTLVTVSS VL: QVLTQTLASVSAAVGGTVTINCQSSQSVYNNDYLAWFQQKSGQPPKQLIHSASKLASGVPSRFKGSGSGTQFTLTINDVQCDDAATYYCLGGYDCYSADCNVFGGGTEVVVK: 1.29
monoclonal antibody B-8 (antibody, V domains shown, Rabbit monoclonal antibody; also called B8-1) VH: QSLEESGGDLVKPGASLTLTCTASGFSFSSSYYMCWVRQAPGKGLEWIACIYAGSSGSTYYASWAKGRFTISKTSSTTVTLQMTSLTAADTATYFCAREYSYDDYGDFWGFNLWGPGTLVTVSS VL: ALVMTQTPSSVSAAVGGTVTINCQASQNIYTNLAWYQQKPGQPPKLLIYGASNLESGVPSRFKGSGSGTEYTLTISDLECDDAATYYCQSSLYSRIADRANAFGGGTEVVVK: 0.712
monoclonal antibody 98G10 (antibody, V domains shown, Rabbit monoclonal antibody) VH: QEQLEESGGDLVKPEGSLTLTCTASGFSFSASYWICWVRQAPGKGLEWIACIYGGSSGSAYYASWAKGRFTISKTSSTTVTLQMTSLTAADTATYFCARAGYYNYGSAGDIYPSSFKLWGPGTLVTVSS VL: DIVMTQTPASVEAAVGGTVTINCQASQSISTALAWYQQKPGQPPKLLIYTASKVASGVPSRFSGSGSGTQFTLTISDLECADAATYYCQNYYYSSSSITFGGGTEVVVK: 0.958

Req: Sample monoclonal antibody 39B4 (antibody, V domains shown, Rabbit monoclonal antibody; also called 39B4-1) VH: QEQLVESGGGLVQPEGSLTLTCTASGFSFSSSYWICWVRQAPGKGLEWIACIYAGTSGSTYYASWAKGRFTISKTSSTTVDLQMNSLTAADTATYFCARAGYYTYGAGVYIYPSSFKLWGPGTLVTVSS VL: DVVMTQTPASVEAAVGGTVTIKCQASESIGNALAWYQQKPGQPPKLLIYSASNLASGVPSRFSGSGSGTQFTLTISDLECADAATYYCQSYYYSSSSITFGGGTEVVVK — what was its OD450?
Resp: 0.96
